Assay: Evaluation of hippocampal distribution in mouse
Type: in vivo
Conditions: plasma, male ICR mice, 10 mg/kg oral, 0.5 hr after administration, read-out: plasma concentration (mean)
Structures can show the parent of a compound that is named as a salt.
Exercise: state measured concentration at 0.5 h for each of the compounds provided.
Could you give the number and then its unit, please?

Worked examples follow.
Compound	Reported
Cn1cc(NC(=O)c2cc([C@@H]3C[C@H]3NC3CCC(F)(F)CC3)ccc2F)cn1 (relative stereo) [Example 186, hydrochloride]	1320 ng/mL
O=C(NC1CCOCC1)c1cccc([C@@H]2C[C@H]2NCC2CC2)c1 (relative stereo) [Example 100, hydrochloride]	889 ng/mL

Then this compound:
concentration at 0.5 h measured on Cc1nnc(NC(=O)c2cccc([C@@H]3C[C@H]3NCC3CCOCC3)c2)s1 (relative stereo) [Example 112, dihydrochloride] = 1710 ng/mL

src = patent US9751885B2
